Across several studies, molecules have been characterized by their Ki on UniProt P31645; a selection follows.
The reply should be a number in nM, with the unit left off.

Quick one: Ki of CCN(CC)CCCOc1cc2c(cn1)C(c1ccc(Cl)c(Cl)c1)CN(C)C2 (centres undefined) ?
26

Quick one: Ki of COc1cc2c(cc1OC)C1=NO[C@@H](CN3CCN(C/C=C/c4ccc(Cl)cc4)CC3)[C@@H]1CO2 ?
1.3

Quick one: Ki of COc1ccc(O[C@@H](CC(C)C)[C@@H]2CCNC2)c(C)n1 ?
0.84

Quick one: Ki of N#Cc1ccc2[nH]cc(CCCNC3COc4ccc5c(c4C3)C(=O)NC5)c2c1 (racemic) ?
13

Quick one: Ki of O=C(c1cccc(Cl)c1Cl)N(CCC1CC1)[C@H]1CCNC1 ?
15

Quick one: Ki of COc1ccc(C2CN(C)Cc3cc(OCCCN4CCC(F)(F)CC4)ccc32)cc1 (centres undefined) ?
6.5

Quick one: Ki of COc1ccc2[nH]cc(C3CC(=O)N(CCCN4CCC(c5c[nH]c6ccc(F)cc56)CC4)C3=O)c2c1 (centres undefined) ?
30

Quick one: Ki of Cc1cccc(F)c1Oc1cccc(F)c1OC1CCNCC1 ?
3250

Quick one: Ki of COc1cc2c(cc1OC)C1=NO[C@@H](CN3CCN(C/C(C)=C/c4cccs4)CC3)[C@@H]1CO2 ?
2.7

----------
pKi: −log10 of the molar value.
Across several studies, molecules have been characterized by their pKi on Sodium-dependent serotonin transporter (Homo sapiens, UniProt P31645); a selection follows.
Label Met when pKi >= 7; otherwise Not met.

Test whether the molecule C[C@H]1CN(C(=O)c2ccc(-c3ccc(F)cc3)cc2)CCN1C(=O)c1ccc2cc[nH]c2c1 records pKi of 7 or higher.
Not met

Test whether the molecule C[C@H]1CN(c2cccc3cc(C#N)ccc23)CCN1CC[C@@H]1OCCc2cc(C(N)=O)ccc21 records pKi of 7 or higher.
Met

Test whether the molecule Fc1ccccc1OCc1cc(OC[C@@H]2CCCN2)no1 records pKi of 7 or higher.
Not met

Test whether the molecule COc1ccc(C2CN(C)Cc3cc(OCCCN4CCN(C(=O)c5cccn5C)CC4)ccc32)cc1 (stereo not drawn) records pKi of 7 or higher.
Met

Test whether the molecule COc1ccc(C2CN(C)Cc3cc(OCCCN4CCN(c5ccncc5)CC4)ccc32)cc1 (stereo not drawn) records pKi of 7 or higher.
Met

Test whether the molecule CN(C)Cc1ccccc1Sc1ccc(I)cc1N records pKi of 7 or higher.
Met

Test whether the molecule CNCCC(Oc1cccc2ccccc12)c1ccccc1 (stereo not drawn) records pKi of 7 or higher.
Met

Test whether the molecule COCCOc1cc(CC2CCN(CCc3ccc4c(c3)S(=O)(=O)CCO4)CC2)ccc1Br records pKi of 7 or higher.
Met

Test whether the molecule Fc1cccc(CCCN2CCCC2)c1 records pKi of 7 or higher.
Not met

Test whether the molecule O=c1[nH]c2cccc(N3CCN(CC4CCc5[nH]c6ccc(F)cc6c5C4)CC3)c2o1 (single isomer, unassigned; 30) records pKi of 7 or higher.
Met

Test whether the molecule CN1Cc2cc(OCCCN3CCC(F)CC3)ccc2C(c2ccc(SC(F)(F)F)cc2)C1 (stereo not drawn) records pKi of 7 or higher.
Met

Test whether the molecule O=C1NCCc2ccc3c(c21)CC(N(CCCc1c[nH]c2ccc(F)cc12)CCC(F)(F)F)CO3 (racemic) records pKi of 7 or higher.
Not met

Test whether the molecule CC(C)C(=O)N(Cc1cccc(Cl)c1Cl)[C@H]1CCNC1 records pKi of 7 or higher.
Met

Test whether the molecule CN(C)Cc1ccccc1Sc1ccc(CF)cc1N records pKi of 7 or higher.
Met

Test whether the molecule COc1cc2c(cc1OC)C1=NO[C@@H](CN3CCN(C/C=C(\C)c4ccco4)CC3)[C@@H]1CO2 records pKi of 7 or higher.
Met

Test whether the molecule Fc1cccc(Cl)c1Oc1cccc(F)c1OC1CNC1 records pKi of 7 or higher.
Not met

Test whether the molecule Cc1ccc(Oc2ccc(F)cc2CN(C)C)c(N)c1 records pKi of 7 or higher.
Met

Test whether the molecule CCOc1c(Cl)cccc1OC(c1ccccc1)C1CNCCO1 (racemic; anti) records pKi of 7 or higher.
Not met

Test whether the molecule COc1cc(Br)ccc1O[C@@H](c1ccccc1)[C@@H]1CNCCO1 records pKi of 7 or higher.
Met

Test whether the molecule O=c1[nH]c2cccc(N3C[C@H]4C[C@@H]3CN4CC3CCc4[nH]c5ccc(F)cc5c4C3)c2o1 (stereo partly drawn) records pKi of 7 or higher.
Not met

Test whether the molecule CCOc1ccccc1N1CCN(CCNC(=O)Cn2nc(-n3ccnc3)ccc2=O)CC1 records pKi of 7 or higher.
Not met

Test whether the molecule Fc1cccc(O[C@H](c2ccccc2)[C@H]2CNCCO2)c1F records pKi of 7 or higher.
Met

Test whether the molecule O=C1NCCc2ccc3c(c21)CC(NCCCc1c[nH]c2ccc(F)cc12)CO3 (racemic) records pKi of 7 or higher.
Met

Test whether the molecule CN(C)CCC(Oc1ccc(C(F)(F)F)cc1)c1ccccc1 (stereo not drawn) records pKi of 7 or higher.
Met

Test whether the molecule CN(C)CCC(Oc1ccc([N+](=O)[O-])cc1)c1ccc(OCCCN2CCCCC2)cc1 (stereo not drawn) records pKi of 7 or higher.
Met

Test whether the molecule CCNCCCOc1ccc2c(c1)CN(C)CC2c1ccc(OC)cc1 (stereo not drawn) records pKi of 7 or higher.
Met

Test whether the molecule CNCCC(Oc1cccc2ccccc12)c1ccccc1C (stereo not drawn) records pKi of 7 or higher.
Met

Test whether the molecule Fc1ccccc1Oc1cccc(F)c1OC1CCCNC1 (stereo not drawn) records pKi of 7 or higher.
Not met

Test whether the molecule CC(C)CN(Cc1ccc(F)cc1C(F)(F)F)C1CCNCC1 records pKi of 7 or higher.
Met

Test whether the molecule Fc1ccccc1Oc1ccccc1OC1CNC1 records pKi of 7 or higher.
Not met

Test whether the molecule Fc1ccc(CN(CC2CC2)C2CCNCC2)c(C(F)(F)F)c1 records pKi of 7 or higher.
Met

Test whether the molecule CNCCC(c1ccccc1)c1ccc2[nH]ccc2c1 (stereo not drawn) records pKi of 7 or higher.
Met

Test whether the molecule CC(C)(O)CN(Cc1ccc(F)cc1C(F)(F)F)C1CCNCC1 records pKi of 7 or higher.
Met

Test whether the molecule Cc1ccc2c(N3CCN(CCc4ccc5c(c4)NC(=O)CO5)[C@H](C)C3)cccc2n1 records pKi of 7 or higher.
Met

Test whether the molecule CNCCC(c1ccccc1)c1ccc(O)c2ccc(OCCN3CCCC3)cc12 (stereo not drawn) records pKi of 7 or higher.
Met

Test whether the molecule Clc1ccc(C2CNCc3cc(OCCCN4CCCCC4)ncc32)cc1Cl (stereo not drawn) records pKi of 7 or higher.
Met

Test whether the molecule COCCOc1cc(CC2CCN(CCc3ccc4c(c3)C(=O)CCO4)CC2)ccc1C(C)C records pKi of 7 or higher.
Not met

Test whether the molecule CCOc1ccc(C2CN(C)Cc3cc(OCCCN4CCC(F)CC4)ccc32)cc1 (stereo not drawn) records pKi of 7 or higher.
Met

Test whether the molecule CN(C)Cc1ccccc1Cc1ccc(I)cc1N records pKi of 7 or higher.
Met

----------
Across several studies, compounds have been characterized by their log10 of Ki on Sodium-dependent serotonin transporter (Homo sapiens); a selection follows.
Please interpret these as log10 of Ki where Ki is in nM.

Write down the reported log10 of Ki of COc1ccc(C2CN(C)Cc3cc(OCCCN4CCC(CO)CC4)ccc32)cc1 (stereo not given) , test system: Sodium-dependent serotonin transporter (Homo sapiens).
0.51

Write down the reported log10 of Ki of COc1cc(CN[C@H]2C3C4CC5C6C4CC3C6C52)cc(OC)c1OC (stereo not given in full) , test system: Sodium-dependent serotonin transporter (Homo sapiens).
2.85

Write down the reported log10 of Ki of N#CCCCN(Cc1ccc(F)cc1C(F)(F)F)C1CCNCC1 , test system: Sodium-dependent serotonin transporter (Homo sapiens).
-0.40

Write down the reported log10 of Ki of O=C1CCc2ccc(CC3CCN(C[C@@H]4COc5c(ccc6c5CC(=O)N6)O4)CC3)cc2N1 , test system: Sodium-dependent serotonin transporter (Homo sapiens).
0.28

Write down the reported log10 of Ki of Cc1ccc(CN(CC(C)C)C2CCNCC2)c(C)c1 , test system: Sodium-dependent serotonin transporter (Homo sapiens).
-0.41

Write down the reported log10 of Ki of COc1cc2c(cc1OC)C1=NO[C@@H](CN3CCN(C/C=C(\C)c4ccc(O)cc4)CC3)[C@@H]1CO2 , test system: Sodium-dependent serotonin transporter (Homo sapiens).
0.88

Write down the reported log10 of Ki of Cc1ncc2c(N3CCN(CCc4ccc5c(c4)NC(=O)CO5)CC3)cccc2n1 , test system: Sodium-dependent serotonin transporter (Homo sapiens).
0.30

Write down the reported log10 of Ki of CNCCC(Oc1cccc2ccccc12)c1cccc(C)c1 (stereo not given) , test system: Sodium-dependent serotonin transporter (Homo sapiens).
0.60

Write down the reported log10 of Ki of COC(=O)c1ccccc1O[C@@H](c1ccccc1)[C@@H]1CNCCO1 , test system: Sodium-dependent serotonin transporter (Homo sapiens).
2.79
